Target: CREB-binding protein (Homo sapiens)
Sequence (Q92793 whole entry): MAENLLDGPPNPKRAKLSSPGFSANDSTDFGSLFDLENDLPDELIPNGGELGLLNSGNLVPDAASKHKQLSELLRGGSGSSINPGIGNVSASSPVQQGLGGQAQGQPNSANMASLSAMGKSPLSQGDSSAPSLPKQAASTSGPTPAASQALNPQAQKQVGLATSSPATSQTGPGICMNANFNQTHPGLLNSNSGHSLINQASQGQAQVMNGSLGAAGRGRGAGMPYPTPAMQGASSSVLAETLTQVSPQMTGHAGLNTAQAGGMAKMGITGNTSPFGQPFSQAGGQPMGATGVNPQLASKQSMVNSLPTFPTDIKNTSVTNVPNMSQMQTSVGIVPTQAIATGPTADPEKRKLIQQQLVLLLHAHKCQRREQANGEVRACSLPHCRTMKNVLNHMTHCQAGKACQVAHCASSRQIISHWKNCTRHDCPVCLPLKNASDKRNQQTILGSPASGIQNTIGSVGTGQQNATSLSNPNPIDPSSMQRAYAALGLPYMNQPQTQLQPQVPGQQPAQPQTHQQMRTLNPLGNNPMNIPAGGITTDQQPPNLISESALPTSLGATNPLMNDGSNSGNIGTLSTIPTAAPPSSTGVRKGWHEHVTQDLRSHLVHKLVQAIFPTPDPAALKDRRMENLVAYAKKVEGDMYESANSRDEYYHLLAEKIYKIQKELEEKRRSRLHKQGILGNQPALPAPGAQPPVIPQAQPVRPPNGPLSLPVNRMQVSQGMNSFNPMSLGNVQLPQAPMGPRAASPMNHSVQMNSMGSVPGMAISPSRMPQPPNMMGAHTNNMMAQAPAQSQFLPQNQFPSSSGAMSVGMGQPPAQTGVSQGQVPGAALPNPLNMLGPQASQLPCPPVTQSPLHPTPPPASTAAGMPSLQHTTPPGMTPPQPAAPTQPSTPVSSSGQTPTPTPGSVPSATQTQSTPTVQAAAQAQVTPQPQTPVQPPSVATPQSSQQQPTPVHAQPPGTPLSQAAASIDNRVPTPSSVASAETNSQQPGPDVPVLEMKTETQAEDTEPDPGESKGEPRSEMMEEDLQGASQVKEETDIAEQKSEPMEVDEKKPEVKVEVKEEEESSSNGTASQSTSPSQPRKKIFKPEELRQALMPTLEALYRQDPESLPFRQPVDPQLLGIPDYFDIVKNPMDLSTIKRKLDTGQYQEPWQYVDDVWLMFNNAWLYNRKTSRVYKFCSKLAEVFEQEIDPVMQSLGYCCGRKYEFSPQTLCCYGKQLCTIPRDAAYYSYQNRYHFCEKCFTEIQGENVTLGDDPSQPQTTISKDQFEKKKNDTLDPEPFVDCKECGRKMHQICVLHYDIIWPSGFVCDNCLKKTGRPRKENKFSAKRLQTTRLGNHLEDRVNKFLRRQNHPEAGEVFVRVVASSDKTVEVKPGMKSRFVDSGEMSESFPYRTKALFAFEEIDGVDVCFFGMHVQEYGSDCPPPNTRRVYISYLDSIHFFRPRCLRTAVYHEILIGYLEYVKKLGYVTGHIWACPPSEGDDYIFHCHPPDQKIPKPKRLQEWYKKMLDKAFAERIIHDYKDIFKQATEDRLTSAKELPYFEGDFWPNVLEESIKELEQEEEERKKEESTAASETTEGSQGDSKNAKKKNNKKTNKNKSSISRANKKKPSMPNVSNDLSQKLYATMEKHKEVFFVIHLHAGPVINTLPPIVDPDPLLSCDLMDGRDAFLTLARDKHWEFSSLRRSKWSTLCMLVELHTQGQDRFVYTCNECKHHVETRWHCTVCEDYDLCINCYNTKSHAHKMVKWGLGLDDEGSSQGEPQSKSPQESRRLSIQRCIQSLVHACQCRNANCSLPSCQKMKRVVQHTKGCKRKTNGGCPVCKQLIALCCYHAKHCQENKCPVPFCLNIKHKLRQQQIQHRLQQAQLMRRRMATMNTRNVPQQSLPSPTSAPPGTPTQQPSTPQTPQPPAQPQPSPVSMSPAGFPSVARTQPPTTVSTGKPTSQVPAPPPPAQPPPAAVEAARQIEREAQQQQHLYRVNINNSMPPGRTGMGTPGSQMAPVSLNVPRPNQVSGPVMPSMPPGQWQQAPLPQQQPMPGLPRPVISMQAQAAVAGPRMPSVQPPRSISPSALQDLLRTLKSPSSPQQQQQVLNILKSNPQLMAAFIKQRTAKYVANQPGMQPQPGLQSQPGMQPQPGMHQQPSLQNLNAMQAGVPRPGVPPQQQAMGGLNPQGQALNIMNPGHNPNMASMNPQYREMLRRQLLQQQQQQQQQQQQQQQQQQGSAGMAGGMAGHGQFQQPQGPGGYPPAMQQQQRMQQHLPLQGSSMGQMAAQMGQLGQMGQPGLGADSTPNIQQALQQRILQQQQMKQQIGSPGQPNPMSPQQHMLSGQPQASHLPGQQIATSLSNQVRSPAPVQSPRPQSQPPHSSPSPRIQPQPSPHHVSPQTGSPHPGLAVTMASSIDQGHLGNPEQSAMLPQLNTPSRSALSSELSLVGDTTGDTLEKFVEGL
Method: Binding affinity to CBP bromodomain (unknown origin) incubated for 60 mins by TR-FRET assay
Value kind: IC50

> print(dat)
                               given.smiles  value.kind   result
1  Cc1noc2c1-c1ccccc1C(c1ccc(Cl)cc1)=N[C@H]2CC(N)=O        IC50  > 20 µM

----------
Method: Total clearance in rat at 1 mg/kg,iv
Format: ADME, organism-based
Details: in vivo
Form field: clearance (one value per entry).
Value kind: clearance (mL/min/kg)

> print(dat)
                               given.smiles  value.kind       unit  quantitative.result
1  COCCNC(=O)C[C@@H]1N=C(c2ccc(Cl)cc2)c2ccccc2-c2c(C)noc21   clearance  mL/min/kg                 36.7
2  Cc1cccc2c1C(c1ccc(Cl)cc1)=N[C@@H](CC(N)=O)c1onc(C)c1-2   clearance  mL/min/kg                 41.7
3  Cc1noc2c1-c1ccccc1C(c1ccc(C#N)cc1)=N[C@H]2CC(N)=O   clearance  mL/min/kg                 21.7
4  Cc1noc2c1-c1ccc(-c3ccc(N)nc3)cc1C(c1ccc(Cl)cc1)=N[C@H]2CC(N)=O   clearance  mL/min/kg                  127
5  Cc1noc2c1-c1ccccc1C(c1ccc(Cl)cc1)=N[C@H]2CC(N)=O   clearance  mL/min/kg                   20
6  COc1ccc2c(c1)C(c1ccc(Cl)cc1)=N[C@@H](CC(N)=O)c1onc(C)c1-2   clearance  mL/min/kg                 36.7

From: ChEMBL document CHEMBL5252513
